Assay: in vitro
Parameters: species or system HB2, CCD841
Conditions: human, hek293 cells
value_kind: viability at 48 h, 10 µM (%)
State the answer as a number, implicitly in %.

q: Return viability at 48 h, 10 µM (reported value) for this compound: "CNC(=O)C1CCN(C(=O)CCl)CC1"
a: 77.1

q: Read off the recorded viability at 48 h, 10 µM for "CN(Cc1ccco1)C(=O)CCl"
a: 49.1

q: Please report viability at 48 h, 10 µM for the following compound: C=CC(=O)N1CCC(n2ncc3ccccc32)C1 (stereo not shown)
a: 86.3

q: Supply recorded viability at 48 h, 10 µM for "CC(C)(C)OC(=O)CNC(=O)CCl" here.
a: 106

q: Entry O=C(CCl)N(C1CCCC1)C1CCS(=O)(=O)C1 (stereo not shown) needs its viability at 48 h, 10 µM filled in; supply it.
a: 42.7

---

Target: NUDT7 (Homo sapiens, UniProt P0C024)
Construct: residues 14-235, E. coli, pNIC28-Bsa4, N-terminal His6 tag removed by TEV, construct 26672 Da
Sequence (P0C024 14-235): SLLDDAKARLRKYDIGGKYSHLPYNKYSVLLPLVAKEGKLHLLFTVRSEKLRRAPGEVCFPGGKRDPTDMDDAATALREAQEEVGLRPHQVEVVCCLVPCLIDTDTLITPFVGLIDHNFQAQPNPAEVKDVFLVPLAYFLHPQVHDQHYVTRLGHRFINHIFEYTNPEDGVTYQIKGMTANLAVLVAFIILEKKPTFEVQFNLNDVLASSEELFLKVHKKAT
Design: Intact protein LC/MS covalent labelling, fragments in pools of five, 200 uM each, 4 °C
Conditions: 24 h, 4 °C, pool of five; 200 µM; covalent
Procedure: Incubations were performed at 200 μM for each compound and 2 μM of protein (10 μM for BSA) for 24 h at 4 °C with moderate shaking. […] Following incubation, we used intact protein [compound left out] chromatography/mass spectrometry (LC/MS) to identify the fragments and quantify their labeling (Figure 3A). […]
value_kind: NUDT7
// no unit string in output, number only

The following compounds have reported results that may help.
q: Return reported NUDT7. Input compound: C=CC(=O)N1CCCC2(CCS(=O)(=O)C2)C1 (centres unmarked)
a: 0.05

q: Give the value of NUDT7 reported for the following: "CCN(C(=O)CCl)C1=CCCCC1"
a: 0

q: Tell us which NUDT7 value is on record for CC1CN(C(=O)CCl)CCO1 (centres unmarked)
a: 0

q: Please give the documented NUDT7 of "C=CC(=O)N1CCC2(CC1)CCS(=O)(=O)CC2"
a: 0

q: Name the recorded NUDT7 of the compound listed here: CC(C)(C)n1ncc2c1CCCC2NC(=O)CCl.Cl (centres unmarked)
a: 0

q: Find the measured NUDT7 of O=C(CCl)N1CCc2sccc2C1c1ccccc1 (centres unmarked) and report it.
a: 0.69

q: Specify reported NUDT7 for the compound shown: "O=C(CCl)NCc1cccc(Cl)c1"
a: 0

q: Identify measured NUDT7 associated with "O=C(CCl)N1CCC(C(=O)N2CCCC2)CC1"
a: 0

New cases:
q: Give NUDT7 for O=C(CCl)N1c2ccccc2OCC1c1ccccc1 (centres unmarked)
a: 0.11

q: Indicate its recorded NUDT7; the compound in question is "CCOC(=O)N1CCC(NC(=O)CCl)CC1"
a: 0

q: Identify measured NUDT7 associated with CCC1c2ccsc2CCN1C(=O)CCl (centres unmarked)
a: 0.3

---

Experiment: in vitro
Design: species or system HB2, CCD841
Details: human, hek293 cells
value_kind: viability at 48 h, 10 µM (%)
Please state the figure in %; there is no need to write the unit.

q: Give viability at 48 h, 10 µM for C=CC(=O)N1CCC2C(CCCN2Cc2ccccc2)C1 (stereo not drawn)
a: 85

q: Given "Cc1nc(CN2CCN(C(=O)CCl)CC2)cs1" , respond with its viability at 48 h, 10 µM.
a: 67.4

***
q: Input "C=CC(=O)NCC1=CCCCC1" , output reported viability at 48 h, 10 µM.
a: 89.9

q: Quickly give me recorded viability at 48 h, 10 µM for "Cc1ccc(-c2nnc(C)[nH]2)c(NC(=O)CCl)c1"
a: 53

q: Entry "O=C(CCl)N1CCc2ccc([N+](=O)[O-])cc21" needs its viability at 48 h, 10 µM filled in; supply it.
a: 17.9

q: // Input: "O=C(CCl)Nc1cc(C(F)(F)F)ccc1N1CCCC1" . Output its viability at 48 h, 10 µM only.
a: 110

q: Provide viability at 48 h, 10 µM value for the following molecule: "O=C(CCl)NCC#Cc1cccc(C(F)(F)F)c1"
a: 52.5

---

Biological target: NUDT7 (Homo sapiens, UniProt P0C024)
Construct: residues 14-235, E. coli, pNIC28-Bsa4, N-terminal His6 tag removed by TEV, construct 26672 Da
Set-up: Intact protein LC/MS covalent labelling, fragments in pools of five, 200 uM each, 4 °C
Details: 24 h, 4 °C, pool of five; 200 µM; covalent
value_kind: NUDT7
Reply with the value as a number alone.

The following molecules have reported results that may help.
q: Identify the reported NUDT7 for the following entry. "C=CC(=O)NCc1nnc(C(C)(C)C)s1"
a: 0

q: Give reported NUDT7 value for "C=CC(=O)Nc1ccc2c(c1)OCO2"
a: 0

***
q: Complete the entry with NUDT7 for CC1CCc2ccccc2N1C(=O)CCl (centres unmarked)
a: 0

q: For "O=C(CCl)Nc1cc([N+](=O)[O-])ccc1Cl" , write its NUDT7.
a: 0.2

---

Parameter: OTUB2. Scope: all listed entries.
Target: OTUB2 (OTUB2A) (Homo sapiens)
Construct: full length residues 1-234, E. coli BL21(DE3)-R3, His tag removed by TEV, construct 27312 Da
Sequence (Q96DC9 whole entry, the tested form may be a part): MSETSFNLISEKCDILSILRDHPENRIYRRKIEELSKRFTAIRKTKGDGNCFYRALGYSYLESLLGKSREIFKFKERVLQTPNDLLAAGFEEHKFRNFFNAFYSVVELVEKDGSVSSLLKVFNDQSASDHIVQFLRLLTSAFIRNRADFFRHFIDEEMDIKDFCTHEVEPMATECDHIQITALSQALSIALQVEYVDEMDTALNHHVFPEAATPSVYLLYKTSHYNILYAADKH
Set-up: Intact protein LC/MS covalent labelling, fragments in pools of five, 200 uM each, 4 °C
Conditions: 24 h, 4 °C, pool of five; 200 µM; covalent
// return just the number, without any unit appended

Answered examples (5):
q: Please report OTUB2 for the following molecule: "Cc1nc(-c2ccc(C)c(NC(=O)CCl)c2)n[nH]1"
a: 0.09

q: Using known records, supply OTUB2 for "O=C(CCl)Nc1nnn[nH]1"
a: 0.3

q: Identify the reported OTUB2 for the following entry. C=CC(=O)N1CC(=O)NC2CCCCC21 (stereo not shown)
a: 0

q: Supply OTUB2 value. Item: "CC(C)N(C(=O)CCl)c1ccccc1"
a: 0

q: Output measured OTUB2 for this item: "CN(Cc1ccccc1Br)C(=O)CCl"
a: 0.12

---
q: Identify measured OTUB2 associated with "O=C(CCl)Nc1nc2ccc(F)cc2s1"
a: 0

q: Consider the molecule CC(C)C(C)(C#N)NC(=O)CCl (stereo not shown) . State its measured OTUB2.
a: 0

q: Give the value of OTUB2 reported for the following: NC(=O)C1CCCCN1C(=O)CCl (stereo not shown)
a: 0

q: Hello, please tell me recorded OTUB2 for this one: C=CC(=O)NCC1CC12CCOCC2 (stereo not shown)
a: 0

q: Supply OTUB2 value. Item: "O=C(CCl)NNC(=O)C1CCC1"
a: 0.14

q: Please give the documented OTUB2 of "O=C(CCl)Nc1ccc(Cl)cc1Cl"
a: 0.14

q: Find the measured OTUB2 of CC1Cc2cc(S(N)(=O)=O)ccc2N1C(=O)CCl (stereo not shown) and report it.
a: 0

q: Return OTUB2 (reported value) for this molecule: "O=C(CCl)Nc1ccc(C(F)(F)F)cc1"
a: 0.17

q: Determine its reported OTUB2: "O=C(CCl)Nc1ccccc1Cl"
a: 0.2

q: Look up and state reported OTUB2 for "C=CC(=O)NCc1c2c(nn1C)CCCC2"
a: 0.08

q: Provide one value: measured OTUB2 of "Cc1cc(NC(=O)CCl)n(-c2ccccc2C)n1"
a: 0

q: Retrieve OTUB2 measured for "N#CC1(N2CCN(C(=O)CCl)CC2)CCCCC1" and print it.
a: 0.07

q: // fetch OTUB2 given entry NC(=O)C1CCCN(C(=O)CCl)C1 (stereo not shown)
a: 0

q: Give me measured OTUB2, please, for this molecule: "O=C(CCl)N1CCN(C(=O)C2CC2)CC1"
a: 0

---

Experiment: in vitro
Parameters: species or system CCD841, HEK293
Settings: human, hb2 cells, read-out: HB-2 Cells Viability (%)
In this section, each of the molecules is paired with its reported viability at 48 h, 10 µM.
The reply should contain only the number, in %.

Field: example entries. Status: answers known.
q: Please indicate viability at 48 h, 10 µM recorded for Cc1ccc(CN(C)C(=O)CCl)c(C)c1 [PCM-0102552]
a: 54.5

q: Give viability at 48 h, 10 µM for the following molecule: O=C(CCl)NC(=O)OCc1ccccc1 [PCM-0102153]
a: 96

q: Determine its reported viability at 48 h, 10 µM: O=C(CCl)N1CCC(C(=O)N2CCCCCC2)CC1 [PCM-0102781]
a: 90.6

q: Indicate its recorded viability at 48 h, 10 µM; the molecule in question is O=C(CCl)N(C1CC1)C1CCCc2ccccc21 (centres unmarked) [PCM-0102774]
a: 5.8

q: Look up and report measured viability at 48 h, 10 µM for this entry: O=C(CCl)N(C1=CCCCC1)C1CC1 [PCM-0102745]
a: 96.2

q: Look up and state reported viability at 48 h, 10 µM for NC(=O)C1CCN(C(=O)CCl)CC1 [PCM-0102584]
a: 105

q: Tell me its viability at 48 h, 10 µM given C=CC(=O)N1CCCC(Cc2nccn2C)C1 (centres unmarked) [PCM-0102433] as the entry.
a: 94.7

q: Hello, please tell me recorded viability at 48 h, 10 µM for this one: Cc1nc(C2(NC(=O)CCl)CCCCC2)no1 [PCM-0102983]
a: 102

q: Quick one: give measured viability at 48 h, 10 µM for C=CC(=O)N1CCC(C(=O)c2cccs2)CC1 [PCM-0102989]
a: 97.7

q: Please report viability at 48 h, 10 µM for the following molecule: Cl.O=C(CCl)N1CCN(Cc2ccco2)CC1 [PCM-0103006]
a: 88.6

More entries:
q: Fill in viability at 48 h, 10 µM for record N#CC(c1ccccc1)N1CCN(C(=O)CCl)CC1 (centres unmarked) [PCM-0102381]
a: 46.7
